# TESTED_TARGET: 15-PGDH/HPGD (Homo sapiens)
# Sequence (P15428 whole entry): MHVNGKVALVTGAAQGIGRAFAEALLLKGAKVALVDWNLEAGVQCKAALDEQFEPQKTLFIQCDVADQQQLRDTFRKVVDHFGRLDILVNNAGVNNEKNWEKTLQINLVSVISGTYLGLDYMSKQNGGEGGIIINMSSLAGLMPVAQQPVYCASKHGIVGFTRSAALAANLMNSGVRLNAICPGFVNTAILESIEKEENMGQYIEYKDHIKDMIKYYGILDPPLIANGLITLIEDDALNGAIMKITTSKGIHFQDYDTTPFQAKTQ
# ASSAY_EXPLANATION: hPGDH inhibitor screening biochemical assay
# TEST_CONDITIONS: 10 nM enzyme, 15 μM Prostaglandin E2, 0.25 mM NAD, fluorescence ex/em 340/485 nm
MEASUREMENT_TYPE: IC50

COMPOUND	MEASUREMENT_TYPE	REPORTED_MEASUREMENT
O[C@@H](c1cnc2c(cnn2-c2cccc(-c3nnc[nH]3)c2)c1)C1CC2CC2C1 (some centres unmarked) [Compound 50A]	IC50	< 100 nM
CCOC1([C@@H](O)c2cnc3c(cnn3-c3ccc(C(=O)O)cc3)c2)CCC1 [Compound 85B]	IC50	≥ 1000 nM
CCOC(C)(C)[C@H](O)c1cnc2c(cnn2-c2ccc(C(=O)O)cc2)c1 [Compound 53A]	IC50	100 to 1000 nM
CSc1ccc(-n2ncc3cc([C@H](O)COC4CCC4)cnc32)cc1 [Compound 119B]	IC50	≥ 1000 nM
O=C(O)c1ccc(-n2ccc3nc([C@@H](O)COCC4CC4)cnc32)cc1 [Compound 112A]	IC50	< 100 nM
CNC(=O)c1ccc(-n2ncc3cc([C@H](O)COC(C)C)cnc32)cc1 [Compound 67A]	IC50	< 100 nM
O[C@@H](COC1CCC1)c1cnc2c(cnn2-c2ccc(-c3nnn[nH]3)cc2)c1 [Compound 79B]	IC50	< 100 nM
O[C@H](COC1CCC1)c1cnc2c(cnn2-c2ccc(-c3nnn[nH]3)cc2)c1 [Compound 79A]	IC50	< 100 nM
